Reference source: ChEMBL document CHEMBL3885861

Species: Rattus norvegicus
ASSAY_NOTES: Open TG-GATES - Regimen: Daily Repeat
Assay type: toxicity, organism-based, Sprague-Dawley
Design: regimen Daily Repeat, gender Male, age 6 weeks
EXPERIMENTAL_SETUP: in vivo, po, 0 mg/kg, […], tissue Plasma, route gavage, dose level Control, time 28 day
So I've got a bunch of molecules here, and I need their TC values.
The response must be a number in mg/dL with no trailing unit.

// lookup TC for C[C@H]1C(=O)O[C@@H]2CCN3CC=C(COC(=O)[C@](C)(O)[C@]1(C)O)[C@H]23
74

Now this one: Cn1cc[nH]c1=S
65.8

Similarly, C[C@H]1O[C@H](O[C@H]2[C@H](O)[C@@H](O)[C@@H](O[C@H]3[C@H](O)[C@@H](O)C(O)O[C@@H]3CO)O[C@@H]2CO)[C@H](O)[C@@H](O)[C@@H]1N[C@H]1C=C(CO)[C@@H](O)[C@H](O)[C@H]1O (some centres undefined) ?
66.8

// next record C=C(C)[C@H]1Cc2c(ccc3c2O[C@@H]2COc4cc(OC)c(OC)cc4[C@@H]2C3=O)O1
62

Next molecule: O=C1CN(/N=C/c2ccc([N+](=O)[O-])o2)C(=O)N1
78.4

One more molecule: O=[N+]([O-])c1ccc(O)c([N+](=O)[O-])c1
79.8

Same lookup for Cc1cccc(C)c1OCC(C)N (centres undefined) , please.
67.8

// next record CCOC(=O)C(C)(C)Oc1ccc(Cl)cc1 [CLOFIBRATE]
66.8

Param item: OCCN1CCN(CCCN2c3ccccc3Sc3ccc(C(F)(F)F)cc32)CC1
74.6

###

Answer each item with its documented CRE.
Species: Rattus norvegicus
ASSAY_NOTES: Open TG-GATES - Regimen: Daily Repeat
Type: toxicity, organism-based, Sprague-Dawley
Design: regimen Daily Repeat, gender Male, age 6 weeks
EXPERIMENTAL_SETUP: in vivo, po, 0 mg/kg, 72 h, tissue Plasma, route gavage, dose level Control, time 3 day
Give just the number in mg/dL; leave the unit off.

Given the molecule O=[N+]([O-])c1ccc(O)c([N+](=O)[O-])c1 [2,4-DINITROPHENOL] , what is its reported CRE?
0.4

Continue with Cn1cc[nH]c1=S [METHIMAZOLE]
0.1

Record: C[C@H]1O[C@H](O[C@H]2[C@H](O)[C@@H](O)[C@@H](O[C@H]3[C@H](O)[C@@H](O)C(O)O[C@@H]3CO)O[C@@H]2CO)[C@H](O)[C@@H](O)[C@@H]1N[C@H]1C=C(CO)[C@@H](O)[C@H](O)[C@H]1O (some centres undefined) [ACARBOSE]
0.2

Field entry: C=C(C)[C@H]1Cc2c(ccc3c2O[C@@H]2COc4cc(OC)c(OC)cc4[C@@H]2C3=O)O1 [ROTENONE]
0.4

###

Species: Rattus norvegicus
ASSAY_NOTES: Open TG-GATES - Regimen: Daily Repeat
Type: toxicity, organism-based, Sprague-Dawley
Parameters: regimen Daily Repeat, gender Male, age 6 weeks
EXPERIMENTAL_SETUP: in vivo, po, 0 mg/kg, 72 h, tissue Plasma, route gavage, dose level Control, time 3 day
Record form. Attribute: CRE. Fill in for each entry.
// units = mg/dL; emit number, no label

Give its CRE value. Item: O=C1CN(/N=C/c2ccc([N+](=O)[O-])o2)C(=O)N1
0.4

Field entry: OCCN1CCN(CCCN2c3ccccc3Sc3ccc(C(F)(F)F)cc32)CC1
0.6

Please answer likewise for CCOC(=O)C(C)(C)Oc1ccc(Cl)cc1 [CLOFIBRATE]
0.4

Query C[C@H]1C(=O)O[C@@H]2CCN3CC=C(COC(=O)[C@](C)(O)[C@]1(C)O)[C@H]23 next
0.2

Would you kindly repeat that for Cc1cccc(C)c1OCC(C)N (stereo not given) ?
0.1

###

Species on record: Rattus norvegicus
ASSAY_NOTES: Open TG-GATES - Regimen: Daily Repeat
Assay type: toxicity, organism-based, Sprague-Dawley
Parameters: regimen Daily Repeat, gender Male, age 6 weeks
EXPERIMENTAL_SETUP: in vivo, po, 0 mg/kg, […], tissue Plasma, route gavage, dose level Control, time 7 day
METRIC: IP

I would be grateful if you could share the reported IP for OCCN1CCN(CCCN2c3ccccc3Sc3ccc(C(F)(F)F)cc32)CC1 .
8.4 mg/dL

For Cn1cc[nH]c1=S then?
7.5 mg/dL

What do we get for C[C@H]1O[C@H](O[C@H]2[C@H](O)[C@@H](O)[C@@H](O[C@H]3[C@H](O)[C@@H](O)C(O)O[C@@H]3CO)O[C@@H]2CO)[C@H](O)[C@@H](O)[C@@H]1N[C@H]1C=C(CO)[C@@H](O)[C@H](O)[C@H]1O (some centres undefined) ?
8.1 mg/dL

What do you get for O=C1CN(/N=C/c2ccc([N+](=O)[O-])o2)C(=O)N1 ?
6.9 mg/dL

###

Organism: Rattus norvegicus
ASSAY_NOTES: Open TG-GATES - Regimen: Daily Repeat
Assay type: toxicity, organism-based, Sprague-Dawley
Set-up: regimen Daily Repeat, gender Male, age 6 weeks
EXPERIMENTAL_SETUP: in vivo, po, 0 mg/kg, 72 h, tissue Plasma, route gavage, dose level Control, time 3 day
METRIC: Na

Query (compound): Cn1cc[nH]c1=S ; field requested: Na
141.8 meq/L

Same again, this time with C[C@H]1O[C@H](O[C@H]2[C@H](O)[C@@H](O)[C@@H](O[C@H]3[C@H](O)[C@@H](O)C(O)O[C@@H]3CO)O[C@@H]2CO)[C@H](O)[C@@H](O)[C@@H]1N[C@H]1C=C(CO)[C@@H](O)[C@H](O)[C@H]1O (some centres undefined)
140.6 meq/L

OCCN1CCN(CCCN2c3ccccc3Sc3ccc(C(F)(F)F)cc32)CC1 , same question.
137.8 meq/L

Also check O=C1CN(/N=C/c2ccc([N+](=O)[O-])o2)C(=O)N1
140 meq/L

// next record O=[N+]([O-])c1ccc(O)c([N+](=O)[O-])c1
138.2 meq/L

Also, Cc1cccc(C)c1OCC(C)N (centres undefined) please.
142 meq/L

Can you check C[C@H]1C(=O)O[C@@H]2CCN3CC=C(COC(=O)[C@](C)(O)[C@]1(C)O)[C@H]23 next?
142.2 meq/L

Check CCOC(=O)C(C)(C)Oc1ccc(Cl)cc1 [CLOFIBRATE] too.
140.6 meq/L

Then this compound: C=C(C)[C@H]1Cc2c(ccc3c2O[C@@H]2COc4cc(OC)c(OC)cc4[C@@H]2C3=O)O1
140.6 meq/L

###

Species on record: Rattus norvegicus
ASSAY_NOTES: Open TG-GATES - Regimen: Single
Type: toxicity, organism-based, Sprague-Dawley
Set-up: regimen Single, gender Male, age 6 weeks
EXPERIMENTAL_SETUP: in vivo, po, 0 mg/kg, 24 h, tissue Plasma, route gavage, dose level Control
METRIC: GLC (mg/dL)
State the answer as a number, implicitly in mg/dL.

Any idea what its GLC is? The compound is Cc1cccc(C)c1OCC(C)N (centres undefined)
196.4

Queued: OCCN1CCN(CCCN2c3ccccc3Sc3ccc(C(F)(F)F)cc32)CC1
183.8

Now try C[C@H]1O[C@H](O[C@H]2[C@H](O)[C@@H](O)[C@@H](O[C@H]3[C@H](O)[C@@H](O)C(O)O[C@@H]3CO)O[C@@H]2CO)[C@H](O)[C@@H](O)[C@@H]1N[C@H]1C=C(CO)[C@@H](O)[C@H](O)[C@H]1O (some centres undefined) .
175.8

What about CCOC(=O)C(C)(C)Oc1ccc(Cl)cc1 [CLOFIBRATE] ?
191.2

Entry to check: C=C(C)[C@H]1Cc2c(ccc3c2O[C@@H]2COc4cc(OC)c(OC)cc4[C@@H]2C3=O)O1
181.6

Follow-up entry: C[C@H]1C(=O)O[C@@H]2CCN3CC=C(COC(=O)[C@](C)(O)[C@]1(C)O)[C@H]23
187.6

Another: Cn1cc[nH]c1=S
180.6

Note, next up: Cc1ccc2cc3c(ccc4ccccc43)c3c2c1CC3
186.2

// repeat for O=[N+]([O-])c1ccc(O)c([N+](=O)[O-])c1 and report
185.6

###

Provide the reported KIDNEY_L of each item.
Organism: Rattus norvegicus
ASSAY_NOTES: Open TG-GATES - Regimen: Daily Repeat
Assay type: toxicity, organism-based, Sprague-Dawley
Set-up: regimen Daily Repeat, gender Male, age 6 weeks
EXPERIMENTAL_SETUP: in vivo, po, 0 mg/kg, […], tissue Kidney, route gavage, dose level Control, time 28 day
Return type: number; implicit unit g.

Given the molecule Cc1cccc(C)c1OCC(C)N (stereo not drawn) , what is its reported KIDNEY_L?
1.4

Input CCOC(=O)C(C)(C)Oc1ccc(Cl)cc1 [CLOFIBRATE]
1.4

Lookup C[C@H]1C(=O)O[C@@H]2CCN3CC=C(COC(=O)[C@](C)(O)[C@]1(C)O)[C@H]23
1.3
